B1: LINE1-mini (parent)
chain: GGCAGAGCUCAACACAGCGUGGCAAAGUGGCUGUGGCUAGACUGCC

- Variants of: B1
- Assay Remarks: self-cleavage, relative activity (ratio to wild type); higher = more cleavage; in vitro, sequencing; the parent is a self-cleaving ribozyme
Classification field. Basis: self-cleavage. Definitions: LOW (below 0.07), MEDIUM (0.07 to below 0.2), HIGH (0.2 or more)

Textbook exercise: identify the category of the variant given here, GGCAGAGCGCAACACAGCGUGGCAAAGUGGCUGUGGCCAGACUGCC [U9G U38C] , according to its measured value.
MEDIUM

Band of GGCAGAACUCAACACAGCGGGGCAAAGUGGCUGUGGCUAGACUGCC [G7A U20G] ?
LOW

Hi there! Could you help me figure out the category for GUCAGAGCUGAACACAGCGUGGCAAAGUGGCUGUGGCUAGACUGCC [G2U C10G] please?
LOW

Determine which band this variant sits in: GGCAGAGCUCAACAUAGCGUGGCAAAGUGGCUGUGGCGAGACUGCC [C15U U38G]
LOW

Categorize the following entry: GACAGAGCUCAACACAGCGUGGCAAAGUUGCUGUGGCUAGACUGCC [G2A G29U]
HIGH

Band for the recorded self-cleavage of GGCAGAGCUCAACACAGCGUGGAAAAGUGGCGGUGGCUAGACUGCC [C23A U32G] ?
HIGH

GET /class?item= GGCGGAGCUCAACACAGCUUGGCAAAGUGGCUGUGGCUAGACUGCC [A4G G19U]
HIGH

Band assignment needed for GGCAGACCUCAACACAGCGUGGCAAAGUCGCUGUGGCUAGACUGCC [G7C G29C] please.
LOW

For GGCAGAACUCAACACAGCGUGGCAAAGAGGCUGUGGCUAGACUGCC [G7A U28A] , which self-cleavage bin applies?
MEDIUM

Quick check: band for GGCAGAGCUCAACACAGCGUGGCAAAGUGGCUGCGGCUAGACUACC [U34C G44A]
MEDIUM

GET /class?item= GGCAGAGCUUAACACAGCGUGGCAAAGUGGCUGUGGCUAAACUGCC [C10U G40A]
LOW

Into which category would you place GGCAAAGCUCAACACAGCGUGACAAAGUGGCUGUGGCUAGACUGCC [G5A G22A] ?
MEDIUM

Bin this entry: GGCAGAGCUCAACACAGCGUGGCAAAGUGGCUGUGGCGAGACUGCC [U38G]
LOW

Which class holds GGCUGAGCUCAACACAGCGUGGCAAAGUGGCUGUGGCUAGACGGCC [A4U U43G] ?
LOW

Bin? GUAAGAGCUCAACACAGCGUGGCAAAGUGGCUGUGGCUAGACUGCC [G2U C3A]
HIGH

Tag the class for CGCAGAGCUCAACACAGCGUGGCAAAGUGGCUGUGGCUAGACUGCU [G1C C46U]
MEDIUM

Input GGCAGAGCUCAACACAGCGUGGCUAAGUGGCUGUGGCUAGACUGAC [A24U C45A] ; output its category
HIGH

Lab note: sort GGCAGAGCUCAACACAGCGUGGCAAAAUGGCUGUGGGUAGACUGCC [G27A C37G] into the matching self-cleavage band.
LOW

Into which bin does this variant go? GGCAGAGCGCAACACAGCGUGGCAAAGUGGCUGUGGUUAGACUGCC [U9G C37U]
MEDIUM

Lab note: sort GGCAGAGCUCAACGGAGCGUGGCAAAGUGGCUGUGGCUAGACUGCC [A14G C15G] into the matching self-cleavage band.
MEDIUM

Form field 'band' for GGCAGAGCUCGACACAGCGUGGCUAAGUGGCUGUGGCUAGACUGCC [A11G A24U]
LOW

Pick a category. Item: GGCAGAGCUCAGCACAGCGUGUCAAAGUGGCUGUGGCUAGACUGCC [A12G G22U]
LOW

Hi there! Could you help me figure out the category for GGCAGAGCUCAUCACAGCGUGGCAAAGUGUCUGUGGCUAGACUGCC [A12U G30U] please?
HIGH

Consider GGCAGAGCUCAACACAGCGUGGCAAAGUGGCUGUGAUUAGACUGCC [G36A C37U] . To which self-cleavage class does it belong?
HIGH

Assign a bin to GGCAGAGCUCAACACAGCGAGGCAAAGUUGCUGUGGCUAGACUGCC [U20A G29U]
HIGH

Category of GGCAGAGCUCAACACAGCGGGGCAAAGUGGCUGUGGCUAAACUGCC [U20G G40A] , please.
LOW

Where would GGCCGAGCUCAACACAGCGUGGCAAUGUGGCUGUGGCUAGACUGCC [A4C A26U] land among the classes by reported self-cleavage?
MEDIUM

Into which bin does this variant go? GACAGAGCUCAACACAGCGUGGCAAAGUGCCUGUGGCUAGACUGCC [G2A G30C]
HIGH

Into which category would you place GGCCGAGCUCAACACAGCGUGGCAAAGUGGCUGUGGCUAGACUGCA [A4C C46A] ?
MEDIUM

Lab note: sort GGCAGAGCUCAACACAGCGUGGCAAAGUGGCUGUGGCUAGACUUCA [G44U C46A] into the matching self-cleavage band.
MEDIUM

Class (by measured self-cleavage) for GGCAGAGCUCAACACAGCGUGGCAAAGUGGCUGUCGCGAGACUGCC [G35C U38G]
LOW

Place this variant in its band: GGCAGAGCUCAACACAGCCUGGCAAAGUGGCUGUGGAUAGACUGCC [G19C C37A]
LOW

Sort GGCAGAGCUAAACACAGCGUGGCAAAGUGGCUGUGGCUAGACUGGC [C10A C45G] into one of the categories.
LOW

Assign a bin to GGCAGAGCUCAACACAGCGUGGCAAAGUGGCUGUGGCUUGACUACC [A39U G44A]
MEDIUM

Assign a bin to GGCAGAGCGCAACACAGCGUGGCAAAGUGGCUUUGGCUAGACUGCC [U9G G33U]
MEDIUM

Which category does the recorded self-cleavage put GGCAGAGCUCAACACAGCGUGGCAAAUUUGCUGUGGCUAGACUGCC [G27U G29U] in?
HIGH

Classify this variant: GGCAGUGCUCAACACAGCGUGACAAAGUGGCUGUGGCUAGACUGCC [A6U G22A]
HIGH

Class for GGGAGAGCUCAACACAGUGUGGCAAAGUGGCUGUGGCUAGACUGCC [C3G C18U] ?
HIGH

Into which category would you place GGCAGAGCUCAUCACAGCGUGGCAAAGUGGCUGUGGCUCGACUGCC [A12U A39C] ?
MEDIUM

State the class of the variant shown: GGCAGAGCUCAACACAGCGUGGCAAAGAGGCGGUGGCUAGACUGCC [U28A U32G]
HIGH

Given GGCAGAGCUCAACGCAGCGUGGCAAAGUGGCUGUGGCUGGACUGCC [A14G A39G] , name the class its self-cleavage places it in.
MEDIUM

State the class of the variant shown: GGCAAAGCUCAUCACAGCGUGGCAAAGUGGCUGUGGCUAGACUGCC [G5A A12U]
MEDIUM

Which category does the recorded self-cleavage put GGCAGAGCUCAACACUGCGUGGCAAAGUAGCUGUGGCUAGACUGCC [A16U G29A] in?
HIGH

Given GGCAGAGCUAUACACAGCGUGGCAAAGUGGCUGUGGCUAGACUGCC [C10A A11U] , name the class its self-cleavage places it in.
LOW

Origin of measurements: the RNAGym collection of RNA variant scans (doi:10.7554/elife.90254)
